- Test system: Chenopodium album
- Protocol: Weed foliar treatment test (Test 3)
- Type: in vivo
- Measurement setup: 5 g a.i./10a; foliar spray at 1.0 to 2.0 leaf stage of Digitaria ciliaris; 3 weeks, 25° C.
Measured endpoint: herbicidal efficacy (growth inhibition rate level), Chenopodium album

Identify measured herbicidal efficacy (growth inhibition rate level), Chenopodium album associated with N#Cc1cnn(-c2nn3c(c2Cl)CCCC3)c1NC(=O)CCl [Control Agent 1.9] 1 (1: 10% to less than 20%)

---
Identify measured herbicidal efficacy (growth inhibition rate level), Chenopodium album associated with N#Cc1cnn(-c2nn3c(c2Cl)CCCC3)c1NC(=O)CCCCl [Control Agent 1.37] 4 (4: 40% to less than 50%)

Identify measured herbicidal efficacy (growth inhibition rate level), Chenopodium album associated with N#Cc1cnn(-c2nn3c(c2Cl)CCCC3)c1NC(=O)CCCl [Control Agent 1.36] 4 (4: 40% to less than 50%)

Identify measured herbicidal efficacy (growth inhibition rate level), Chenopodium album associated with CCC(=O)Nc1c(C#N)cnn1-c1nn2c(c1Cl)CCCC2 [Control Agent 4.187] 2 (2: 20% to less than 30%)

###

- Tested on: Digitaria ciliaris
- Protocol: Farming soil treatment test
- Type: in vivo
- Measurement setup: 10 g a.i./10a; soil surface spray prior to weed growth; 30 days, 30° C.
Measured endpoint: herbicidal efficacy (growth inhibition rate level), Digitaria ciliaris

Identify measured herbicidal efficacy (growth inhibition rate level), Digitaria ciliaris associated with N#Cc1cnn(-c2nn3c(c2Cl)CCCC3)c1NC(=O)CCCl [Control Agent 1.36] 4 (4: 40% to less than 50%)

---
Identify measured herbicidal efficacy (growth inhibition rate level), Digitaria ciliaris associated with CC(=O)Nc1c([N+](=O)[O-])cnn1-c1nn2c(c1Cl)CCCC2 [Control Agent 2.17] 1 (1: 10% to less than 20%)

Identify measured herbicidal efficacy (growth inhibition rate level), Digitaria ciliaris associated with CCC(=O)Nc1c(C#N)cnn1-c1nn2c(c1Cl)CCCC2 [Control Agent 4.187] 3 (3: 30% to less than 40%)

Identify measured herbicidal efficacy (growth inhibition rate level), Digitaria ciliaris associated with N#Cc1cnn(-c2nn3c(c2Cl)CCCC3)c1NC(=O)CCCCl [Control Agent 1.37] 4 (4: 40% to less than 50%)

Identify measured herbicidal efficacy (growth inhibition rate level), Digitaria ciliaris associated with N#Cc1cnn(-c2nn3c(c2Cl)CCCC3)c1NC(=O)CCl [Control Agent 1.9] 1 (1: 10% to less than 20%)
